# Test system: Fibroblast
# EXPERIMENT_SUMMARY: Multiplex assay against human fibroblast
# Format: toxicity, cell-based
# ASSAY_CONDITIONS: 24 h, 1 µM, compound concentration 1 uM, replicate 2
Note to self: use criterion met only for Total Cell Count readings below 100; a reading exactly at 100 still gets criterion not met.

Cl.Cl.NC1(c2ccc(-c3nc4ccn5c(=O)[nH]nc5c4cc3-c3ccccc3)cc2)CCC1
criterion not met
CN(C)C/C=C/C(=O)Nc1cc2c(Nc3ccc(F)c(Cl)c3)ncnc2cc1O[C@H]1CCOC1.O=C(O)/C=C\C(=O)O.O=C(O)/C=C\C(=O)O [AFATINIB DIMALEATE]
criterion met
Cc1nc(Cc2cccc(C(F)(F)F)c2)sc1-c1ccc(C(N)=O)nc1 [TP-024n]
criterion not met
COc1cc2c(Nc3ccc(NC(=O)c4ccccc4)cc3)ncnc2cc1OCCCN1CCOCC1
criterion met
Cc1cc2c(cc1N1C(=O)c3cccc4c(CCCO)ccc(c34)C1=O)n(C)c(=O)n2C
criterion met

Query :: Lab note: Total Cell Count threshold 100. Does this compound come in strictly under it? N#Cc1cnc(Nc2cc(NC[C@H]3CNCCO3)c(C(F)(F)F)cn2)cn1
Result :: criterion met

Query :: Lab note: Total Cell Count threshold 100. Does this compound come in strictly under it? CN(C)CCOc1ccc(-c2nc(-c3ccncc3)c(-c3ccc4c(c3)CC/C4=N\O)[nH]2)cc1
Result :: criterion not met

Query :: Lab note: Total Cell Count threshold 100. Does this compound come in strictly under it? CC(C)(C)c1cnc(CSc2cnc(NC(=O)C3CCNCC3)s2)o1
Result :: criterion met
